- procedure text: Binding of GSAO to dithiols, loss of thiols in DTNB assay
- test conditions: ring size 6; errors are 1 SD; read-out: Dissociation Constant
readout name: Kd (nM)

[
  {
    "molecule": "NC(CCC(=O)NC(CSCC(=O)Nc1ccc([As]=O)cc1)C(=O)NCC(=O)O)C(=O)O (stereo not shown)",
    "recorded value": 200
  }
]

---

- Tested on: HT1080 cells
- procedure text: Proliferation and viability of cultured cells, 72 hr, cell count
- Assay type: cell-based, human
- test conditions: Homo sapiens, HT-1080; HT1080, 5% FCS, 72 hr
pIC50: −log10 of the molar value.
readout name: pIC50

[
  {
    "compound": "NC(CCC(=O)NC(CSCC(=O)Nc1ccc([As]=O)cc1)C(=O)NCC(=O)O)C(=O)O (stereo not shown)",
    "tgt": "HT1080 cells",
    "recorded value": "~4.40"
  }
]

---

- System: BAE cells
- procedure text: Proliferation and viability of cultured cells, 72 hr, cell count
- Assay type: cell-based, bovine
- test conditions: Bos taurus, 72 h, BAE, 10% BCS, 72 hr; read-out: Proliferation IC50
readout name: IC50

[
  {
    "compound": "NC(CCC(=O)NC(CSCC(=O)Nc1ccc([As]=O)cc1)C(=O)NCC(=O)O)C(=O)O (stereo not shown) [GSAO]",
    "recorded value": "~0.2 µM"
  }
]
